- assay_notes: Clearance in rat liver microsomes
value_type: CLhep predicted (mL/min/kg)

Below, each entry is followed by its recorded CLhep predicted result.
Cc1ccoc1C(=O)Nc1ccc(N2C(=O)c3ccc(Cl)cc3C2=O)cc1F
46.7
Cc1ccoc1C(=O)Nc1ccc(N2C(=O)c3cccc(F)c3C2=O)cc1F
35.8

(a) Cc1ccc2c(c1)C(=O)N(c1ccc(NC(=O)c3occc3C)c(F)c1)C2=O
(b) Cc1ccoc1C(=O)Nc1ccc(N2C(=O)c3ccc(F)cc3C2=O)cc1F
Enquiry: Among a and b , whose measured CLhep predicted is the smaller figure? # reply format: chosen label
Return: a
(a: 35 mL/min/kg, b: 52 mL/min/kg)

---

- target_or_system: Metabotropic glutamate receptor 1 (Homo sapiens)
- Sequence (Q13255 whole entry): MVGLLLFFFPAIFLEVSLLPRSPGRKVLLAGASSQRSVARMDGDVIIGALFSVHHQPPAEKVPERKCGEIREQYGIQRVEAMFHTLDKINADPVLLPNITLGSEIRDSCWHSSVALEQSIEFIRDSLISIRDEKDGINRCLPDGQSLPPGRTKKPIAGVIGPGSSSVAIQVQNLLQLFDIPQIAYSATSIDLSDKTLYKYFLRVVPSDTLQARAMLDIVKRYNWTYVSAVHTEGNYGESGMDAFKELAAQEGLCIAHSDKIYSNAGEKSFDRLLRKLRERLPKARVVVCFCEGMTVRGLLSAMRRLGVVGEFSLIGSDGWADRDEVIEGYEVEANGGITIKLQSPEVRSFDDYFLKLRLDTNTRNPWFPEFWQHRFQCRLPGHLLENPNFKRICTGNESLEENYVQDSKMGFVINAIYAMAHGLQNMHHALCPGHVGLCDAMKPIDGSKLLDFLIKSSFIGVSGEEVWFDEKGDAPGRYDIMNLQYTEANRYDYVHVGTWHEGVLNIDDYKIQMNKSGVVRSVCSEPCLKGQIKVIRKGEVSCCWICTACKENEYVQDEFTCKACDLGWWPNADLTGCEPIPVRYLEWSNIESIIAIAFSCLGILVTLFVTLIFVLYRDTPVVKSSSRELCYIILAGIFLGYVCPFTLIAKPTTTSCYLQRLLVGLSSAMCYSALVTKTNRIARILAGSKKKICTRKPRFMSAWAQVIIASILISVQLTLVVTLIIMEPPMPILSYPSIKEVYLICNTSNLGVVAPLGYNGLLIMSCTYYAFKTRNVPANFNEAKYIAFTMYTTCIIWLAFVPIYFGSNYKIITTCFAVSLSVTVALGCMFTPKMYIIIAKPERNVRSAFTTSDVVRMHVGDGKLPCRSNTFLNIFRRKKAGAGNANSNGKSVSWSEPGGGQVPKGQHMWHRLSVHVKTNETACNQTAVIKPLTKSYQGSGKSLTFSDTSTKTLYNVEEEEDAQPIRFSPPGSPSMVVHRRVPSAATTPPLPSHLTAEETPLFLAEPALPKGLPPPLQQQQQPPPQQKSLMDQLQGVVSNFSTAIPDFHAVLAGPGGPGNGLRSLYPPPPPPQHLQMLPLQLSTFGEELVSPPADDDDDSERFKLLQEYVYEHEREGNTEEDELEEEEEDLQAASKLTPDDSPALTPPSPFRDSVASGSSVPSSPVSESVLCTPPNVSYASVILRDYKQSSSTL
- assay_notes: Positive allosteric modulation of human mGlu1 receptor by cell based calcium mobilization
- Assay type: functional
- study_conditions: read-out: EC50
value_type: EC50 (nM)

Below, each entry is followed by its recorded EC50 result.
Cn1ccnc1C(=O)Nc1ccc(N2C(=O)c3ccc(F)cc3C2=O)c(Cl)c1
673
Cc1cn[nH]c1C(=O)Nc1ccc(N2C(=O)c3ccc(Cl)cc3C2=O)c(Cl)c1
855
Cc1scnc1C(=O)Nc1ccc(N2C(=O)c3ccc(Cl)cc3C2=O)c(Cl)c1
51
Cc1cn[nH]c1C(=O)Nc1ccc(N2C(=O)c3cccc(C)c3C2=O)c(Cl)c1
4940

(a) Cc1scnc1C(=O)Nc1ccc(N2C(=O)c3cccc(F)c3C2=O)c(Cl)c1
(b) Cc1cccc2c1C(=O)N(c1ccc(NC(=O)c3ncoc3C)cc1Cl)C2=O
(c) Cc1ocnc1C(=O)Nc1ccc(N2C(=O)c3ccc(Cl)cc3C2=O)c(Cl)c1
Enquiry: Task field, ranking: reported EC50, descending order. Response field: labels, in requested order.
Return: b, a, c
(b: 469 nM, a: 187 nM, c: 54 nM)

(a) Cc1cccc2c1C(=O)N(c1ccc(NC(=O)c3ncsc3C)cc1Cl)C2=O
(b) Cc1cc[nH]c1C(=O)Nc1ccc(N2C(=O)c3ccccc3C2=O)c(Cl)c1
Enquiry: Endpoint returns the identifier whose EC50 is numerically larger, either a or b . # reply format: chosen label
Return: b
(b: 3420 nM, a: 232 nM)
